Test system: Drosophila bursicon receptor LGR2 (rickets)
Assay: inhibitors of bursicon-induced LGR2 CRE-luciferase signal, primary screen, cell-based, HEK293, CRE-luciferase reporter, bursicon stimulation (AID 720647);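 note: agonist challenge used bursicon conditioned medium at about half maximal strength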
Details: bursicon-stimulated, 4 h, at 9.99 µM, active compounds read high
About 1,300 (0.34%) of roughly 380,000 compounds were called active. This is one part of a sample in which actives are shown more often than they occur.
Quick reference for inhibition among some compounds
Numbers only; they are read as %.

// below: answered compounds
>  <compound>
O=C(Cn1cc(/C=N/NC(=O)c2cccc(C(F)(F)F)c2)c2ccccc21)Nc1ccc(F)cc1

>  <data_value>
13.4

$$$$
>  <compound>
CSc1ncnc2c1ncn2CC(=O)C1CCC2C3CCC4=CC(=O)CCC4(C)C3CCC12C (centres undefined)

>  <data_value>
89.8

$$$$
>  <compound>
CSc1ncnc2c1ncn2CCCNCc1ccco1

>  <data_value>
-1.41

$$$$
>  <compound>
C[C@H](CO)N1C[C@H](C)[C@H](CN(C)Cc2ccccc2)OCCCC[C@H](C)Oc2ccc(NC(=O)Cc3ccccc3)cc2C1=O

>  <data_value>
24

$$$$
>  <compound>
O=C(O)c1cccc(NC(=S)N/N=C/c2c[nH]c3ccccc23)c1

>  <data_value>
75.5

$$$$

Now consider a different compound.
For the compound shown here, COC(=O)c1cc(NC2c3ccccc3C(=O)N2c2ccc(Cl)cn2)cc(C(=O)OC)c1 (centres undefined) , give the reported inhibition.
-4.93

###

Test system: Drosophila bursicon receptor LGR2 (rickets)
Assay: inhibitors of bursicon-induced LGR2 CRE-luciferase signal, primary screen, cell-based, HEK293, CRE-luciferase reporter, bursicon stimulation (AID 720647);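 note: agonist challenge used bursicon conditioned medium at about half maximal strength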
Settings: bursicon-stimulated, 4 h, at 9.99 µM, active compounds read high
Among all 380,000 compounds or so, about 1,300 (0.34%) were called active. The sample holds actives, similar compounds and a random draw of the others, so the mix is not that of the screen.
Quick reference for inhibition among some compounds
Numbers only; they are read as %.

>  <compound>
Clc1ccc(-c2cc(C3CCNCC3)[nH]n2)c(Cl)c1

>  <inhibition / %>
2.21

$$$$

I'm curious: which inhibition was measured for C[C@@H]1CCCCO[C@H](CN(C)C(=O)NC2CCCCC2)[C@@H](C)CN([C@H](C)CO)C(=O)c2cc(NS(=O)(=O)c3ccc(F)cc3)ccc2O1 tested on Drosophila bursicon receptor LGR2 (rickets)?
-5.15

I'm curious: which inhibition was measured for Cc1ccc(NC(=O)C2CCCN2C(=O)OCc2ccccc2)cc1C (centres undefined) tested on Drosophila bursicon receptor LGR2 (rickets)?
1.81

I'm curious: which inhibition was measured for CCOc1ccc(N/C=C/C(=O)c2ccccc2)cc1 tested on Drosophila bursicon receptor LGR2 (rickets)?
70.1

I'm curious: which inhibition was measured for COCCCN(C(=O)Cn1ncc2c(=O)oc3ccc(C)cc3c21)C(C)c1ccncc1 (centres undefined) tested on Drosophila bursicon receptor LGR2 (rickets)?
0.725

###

Tested on: Drosophila bursicon receptor LGR2 (rickets)
Assay: inhibitors of bursicon-induced LGR2 CRE-luciferase signal, primary screen, cell-based, HEK293, CRE-luciferase reporter, bursicon stimulation (AID 720647);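 note: agonist challenge used bursicon conditioned medium at about half maximal strength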
Details: bursicon-stimulated, 4 h, at 9.99 µM, active compounds read high
Screen size: about 380,000 compounds; about 1,300 (0.34%) were called active. The full list was thinned out, with actives kept by preference.
Mark 1 for reported inhibition of 50% or greater; mark 0 for anything smaller.

Some solved entries appear below for comparison.
>  <smiles_code>
C[C@@H]1CCCCO[C@H](CN(C)S(=O)(=O)c2cn(C)cn2)[C@H](C)CN([C@H](C)CO)C(=O)c2cc(N(C)C)ccc2O1

>  <label>
0

$$$$
>  <smiles_code>
NCCCCCC(=O)N/N=C/c1ccc2nccnc2c1

>  <label>
0

$$$$
>  <smiles_code>
C[C@@H]1CN([C@H](C)CO)C(=O)c2cc(NC(=O)CCCCCC(=O)Nc3ccccc3N)ccc2O[C@H]1CN(C)Cc1ccncc1

>  <label>
0

$$$$
>  <smiles_code>
CCCCCCCCn1c2c(c(=N)c3c1CCC3)CCCC2

>  <label>
1

$$$$

--- query ---
Reported inhibition reaches at least 50% for Clc1ccc(-c2cc(-c3ccccn3)on2)c(Cl)c1 ?
1

###

Tested on: Drosophila bursicon receptor LGR2 (rickets)
Assay: inhibitors of bursicon-induced LGR2 CRE-luciferase signal, primary screen, cell-based, HEK293, CRE-luciferase reporter, bursicon stimulation (AID 720647);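 note: agonist challenge used bursicon conditioned medium at about half maximal strength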
Conditions: bursicon-stimulated, 4 h, at 9.99 µM
The whole screen tested about 380,000 compounds, of which about 1,300 (0.34%) were called active.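 How the source made its calls: active means drop in luminescence signal, shown as inhibition above about 50% in the replicate tests (limit read from the data, passing the limit was not always enough); inconclusive means probably only some replicates passing the limit; inactive means the rest.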 Only a selection was taken, and actives are over-represented in it overall.
Write down one outcome, taken from Yes for active, No for inactive

For this compound, state the assay outcome: Nc1nc2c(Br)ccc(Br)c2cc1C(=O)NCCc1ccccc1
No

For this compound, state the assay outcome: COc1ccc2c3c([nH]c2c1)[C@H](CO)N(Cc1ccccc1Cl)CC31CN(C(=O)C2CC2)C1
No

For this compound, state the assay outcome: N#C[C@@H]1[C@@H](c2ccc(C#Cc3cccc(F)c3)cc2)[C@@H](CO)N1C(=O)C1CCC1
No

For this compound, state the assay outcome: Cc1csc(OCC(=O)Nc2ccc(C)c(C)c2)n1
No

###

Tested on: Drosophila bursicon receptor LGR2 (rickets)
Test: inhibitors of bursicon-induced LGR2 CRE-luciferase signal, primary screen, cell-based, HEK293, CRE-luciferase reporter, bursicon stimulation (AID 720647);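 note: agonist challenge used bursicon conditioned medium at about half maximal strength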
Conditions: bursicon-stimulated, 4 h, at 9.99 µM
The campaign covered roughly 380,000 compounds. About 1,300 (0.34%) were called active.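 The calls were made as follows: active = drop in luminescence signal, shown as inhibition above about 50% in the replicate tests (limit read from the data, passing the limit was not always enough); inconclusive = probably only some replicates passing the limit; inactive = the rest.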 This excerpt belongs to a sample that is enriched for actives.
Write down one outcome, taken from active, inactive

For this compound, state the assay outcome: CCn1cc(/C=C(\NC(=O)c2ccc(C)cc2)C(=O)NCCN2CCOCC2)c2ccccc21
inactive

For this compound, state the assay outcome: COCCNC(=O)C[C@H]1CC[C@H]2[C@H](COc3ccc(NC(=O)C4CCOCC4)cc3C(=O)N2C)O1
inactive

For this compound, state the assay outcome: CCc1ccc2oc(-c3ccc(N)cc3)nc2c1
active

For this compound, state the assay outcome: O=C(NCc1ccc2c(c1)OCO2)c1sccc1Br
inactive

For this compound, state the assay outcome: COCC(=O)N1[C@H](C(=O)N2CCN(C)CC2)[C@@H](CO)[C@@H]2Cn3c(ccc(C4=CCCC4)c3=O)[C@@H]21
inactive

For this compound, state the assay outcome: N#C[C@@H]1N[C@H](CO)[C@@H]1c1ccc(/C=C/c2ccccc2)cc1
inactive

For this compound, state the assay outcome: CCCNC(=O)[C@H]1[C@H](CO)[C@H]2Cn3c(ccc(-c4cccc(F)c4)c3=O)[C@@H]1N2C(=O)CC
inactive

For this compound, state the assay outcome: COc1ccc(-c2onc3ccc(C(C)=O)cc23)cc1
inactive

For this compound, state the assay outcome: O=C(NCCc1ccc(C(F)(F)F)cc1)c1ccc2c(c1)OCO2
inactive

For this compound, state the assay outcome: COC(=O)N(C)C[C@H]1OCc2ccccc2-c2ccccc2C(=O)N([C@@H](C)CO)C[C@H]1C
inactive

For this compound, state the assay outcome: O=C(C1CCCCC1)N1[C@H](CO)[C@@H](c2ccccc2)C12CN(Cc1cccc(Cl)c1)C2
inactive

For this compound, state the assay outcome: O=C(NCc1ccco1)/C(=C\c1cccc([N+](=O)[O-])c1)NC(=O)c1ccco1
inactive

For this compound, state the assay outcome: O=C(Nc1nc2ccccc2s1)c1ccc2c(c1)OCO2
active

For this compound, state the assay outcome: COc1ccc(-c2nc(-c3ccccc3)no2)c(OC)c1
active

For this compound, state the assay outcome: CCCC(=O)N1CC2(CN(C(=O)NC(C)C)C2)c2c([nH]c3cc(OC)ccc23)[C@@H]1CO
inactive

For this compound, state the assay outcome: COc1cccc2c1C(=O)c1c(O)c3c(c(O)c1C2=O)CC(O)(C(C)=NNC(=O)c1ccc(Cl)c(Cl)c1)CC3OC1CC(N)C(O)C(C)O1 (centres undefined)
active

###

Test system: Drosophila bursicon receptor LGR2 (rickets)
Assay: inhibitors of bursicon-induced LGR2 CRE-luciferase signal, primary screen, cell-based, HEK293, CRE-luciferase reporter, bursicon stimulation (AID 720647);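 note: agonist challenge used bursicon conditioned medium at about half maximal strength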
Settings: bursicon-stimulated, 4 h, at 9.99 µM, active compounds read high
Out of some 380,000 compounds screened, about 1,300 (0.34%) were called active. Shown is part of a subset that was picked to be rich in actives.
quantity_measured: inhibition (%)
Numbers only; they are read as %.

>  <smiles_code>
C/C(=N/OC(=O)c1c(-c2c(F)cccc2Cl)noc1C)c1cnccn1

>  <test_system>
Drosophila bursicon receptor LGR2 (rickets)

>  <measure_unit>
%

>  <inhibition>
32.3

$$$$
>  <smiles_code>
COc1cccc(/C=C/c2ccc3ccccc3n2)c1OC(C)=O

>  <test_system>
Drosophila bursicon receptor LGR2 (rickets)

>  <measure_unit>
%

>  <inhibition>
84.6

$$$$
>  <smiles_code>
C[C@H](CO)N1C[C@H](C)[C@H](CN(C)C(=O)Nc2ccc(F)cc2)Oc2ccc(NC(=O)Cc3cn(C)c4ccccc34)cc2CC1=O

>  <test_system>
Drosophila bursicon receptor LGR2 (rickets)

>  <measure_unit>
%

>  <inhibition>
10.8

$$$$
>  <smiles_code>
O=c1c2c(nc3cc(-c4cccc(Cl)c4)[nH]n13)CCCC2

>  <test_system>
Drosophila bursicon receptor LGR2 (rickets)

>  <measure_unit>
%

>  <inhibition>
53.6

$$$$

Now consider a different molecule.
For the molecule shown here, C/C(=N/OC(=O)c1cccc(C(F)(F)F)c1)c1cnccn1 , give the reported inhibition.
16.7
